# System: CDK6/cyclinD3 (Homo sapiens, UniProt Q00534)
# Sequence (Q00534 whole entry): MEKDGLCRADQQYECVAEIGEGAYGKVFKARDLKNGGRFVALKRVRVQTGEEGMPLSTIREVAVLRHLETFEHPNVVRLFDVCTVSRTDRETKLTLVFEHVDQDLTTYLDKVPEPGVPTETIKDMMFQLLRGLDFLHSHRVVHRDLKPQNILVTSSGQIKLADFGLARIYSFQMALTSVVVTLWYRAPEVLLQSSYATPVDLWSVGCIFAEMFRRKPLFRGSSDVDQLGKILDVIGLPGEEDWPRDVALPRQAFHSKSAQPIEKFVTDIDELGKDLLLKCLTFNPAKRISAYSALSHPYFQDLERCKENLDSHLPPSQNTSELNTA
# Sequence (P30281 whole entry partner): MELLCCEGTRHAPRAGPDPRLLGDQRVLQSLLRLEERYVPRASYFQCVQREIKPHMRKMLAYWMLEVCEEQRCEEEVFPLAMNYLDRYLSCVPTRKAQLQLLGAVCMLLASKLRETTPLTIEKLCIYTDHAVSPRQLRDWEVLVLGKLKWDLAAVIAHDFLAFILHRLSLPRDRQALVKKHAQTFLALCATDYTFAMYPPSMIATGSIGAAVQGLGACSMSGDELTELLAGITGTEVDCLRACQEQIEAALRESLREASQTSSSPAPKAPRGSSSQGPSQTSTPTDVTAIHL
# Test Summary: Cyclin-dependent kinase activity assay (continuous ATP coupling assay), CDK6/cyclinD3
# Experimental Conditions: CDK6/cyclinD3 25 nM, ATP 500 μM, Rb copeptide 500 μM, 15 min preincubation, pH 7.5, 1% DMSO
Answer each item with its documented IC50.

(Q) Query (compound): CNS(=O)(=O)c1ccc(Nc2ncc(C(F)(F)F)c(-n3cc([C@H]4CC[C@H](O)C4)cn3)n2)cc1 (single isomer, unassigned) ; field requested: IC50
(A) 10 to 100 nM

(Q) Same lookup for CNS(=O)(=O)c1ccc(Nc2ncc(C(F)(F)F)c(-n3cc(C(C)(C)CO)cn3)n2)cc1 , please.
(A) 10 to 100 nM

(Q) What about this compound? CNS(=O)(=O)c1ccc(Nc2ncc(F)c(-n3cc(CC(C)(C)O)cn3)n2)cc1
(A) ≥ 100 nM

(Q) Let us now turn to CNS(=O)(=O)c1ccc(Nc2ncc(C(F)(F)F)c(-n3cc([C@H]4CCCN4)cn3)n2)cc1
(A) 10 to 100 nM

(Q) Param item: CNS(=O)(=O)c1ccc(Nc2ncc(C(F)(F)F)c(-n3cc(CC(C)(C)N)cn3)n2)cc1
(A) ≥ 100 nM

(Q) Also CNS(=O)(=O)c1ccc(Nc2ncc(C(F)(F)F)c(-n3cc(C4CNC4)cn3)n2)cc1 ?
(A) 10 to 100 nM

(Q) Next compound up: CNS(=O)(=O)c1ccc(Nc2ncc(C(F)(F)F)c(-n3cc(C[C@H](C)O)cn3)n2)cc1 (single isomer, unassigned)
(A) 10 to 100 nM

(Q) Okay, and O=S(=O)(NC1COC1)c1ccc(Nc2ncc(C(F)(F)F)c(-n3cccn3)n2)cc1 ?
(A) ≥ 100 nM

(Q) What do we get for CS(=O)(=O)Nc1cccc(Nc2ncc(C(F)(F)F)c(-n3cccn3)n2)c1 ?
(A) ≥ 100 nM

(Q) Do the same for [2H]C([2H])([2H])NS(=O)(=O)c1ccc(Nc2ncc(C(F)(F)F)c(-n3cc(CC(C)(C)O)cn3)n2)cc1 please
(A) 10 to 100 nM

(Q) Same again, this time with CNS(=O)(=O)c1ccc(Nc2ncc(C(F)(F)F)c(-n3cc([C@H]4CCC[C@H]4O)cn3)n2)cc1 (single isomer, unassigned)
(A) ≥ 100 nM

(Q) For CN1CCN(S(=O)(=O)c2ccc(Nc3ncc(C(F)(F)F)c(-n4cccn4)n3)cc2)CC1 then?
(A) ≥ 100 nM

(Q) Now consider CNS(=O)(=O)c1ccc(Nc2ncc(C#N)c(-n3cccn3)n2)cc1 .
(A) ≥ 100 nM

(Q) What do you have for CN1CCC(NS(=O)(=O)c2ccc(Nc3ncc(C(F)(F)F)c(-n4cccn4)n3)cc2)CC1 ?
(A) ≥ 100 nM

(Q) And what about the compound O=S(=O)(NCCO)c1ccc(Nc2ncc(F)c(-n3cccn3)n2)cc1 ?
(A) ≥ 100 nM

(Q) Consider next the compound CNS(=O)(=O)c1ccc(Nc2ncc(F)c(-n3cccn3)n2)cc1 in the same way.
(A) ≥ 100 nM

(Q) Now the compound O=S(=O)(NCCO)c1ccc(Nc2ncc(C(F)(F)F)c(-n3cccn3)n2)cn1
(A) ≥ 100 nM

(Q) What about this compound? CN(C)CCNS(=O)(=O)c1ccc(Nc2ncc(C(F)(F)F)c(-n3cccn3)n2)cc1
(A) 10 to 100 nM

(Q) Now this one: CNS(=O)(=O)c1ccc(Nc2ncc(C)c(-n3cccn3)n2)cc1
(A) ≥ 100 nM

(Q) Same question, O=C1NCc2cc(Nc3ncc(C(F)(F)F)c(-n4cccn4)n3)ccc21 this time
(A) ≥ 100 nM

(Q) What about this compound? CNS(=O)(=O)c1ccc(Nc2ncc(C(F)(F)F)c(-n3cc(C4CCN(C(C)=O)CC4)cn3)n2)cc1
(A) ≥ 100 nM

(Q) // next record CNS(=O)(=O)c1ccc(Nc2ncc(C(F)(F)F)c(-n3cc([C@H]4C[C@H](O)C4)cn3)n2)cc1
(A) ≥ 100 nM

(Q) Now consider CNS(=O)(=O)c1ccc(Nc2ncc(C(F)(F)F)c(-n3cc(C4(C#N)CC4)cn3)n2)cc1 and answer again.
(A) ≥ 100 nM

(Q) Cool, now O=S(=O)(NCCO)c1ccc(Nc2ncc(C(F)(F)F)c(-n3cccn3)n2)c(F)c1
(A) ≥ 100 nM

(Q) Lookup CNS(=O)(=O)c1cccc(Nc2ncc(C(F)(F)F)c(-n3cccn3)n2)c1
(A) ≥ 100 nM

(Q) Subsequent entry: CNS(=O)(=O)c1ccc(Nc2ncc(Br)c(-n3cccn3)n2)cc1
(A) ≥ 100 nM

(Q) Now the compound FC(F)(F)c1cnc(Nc2ccc(S(F)(F)(F)(F)F)cc2)nc1-n1cccn1
(A) ≥ 100 nM

(Q) Would you kindly repeat that for CNS(=O)(=O)c1ccc(Nc2ncc(C(F)(F)F)c(-n3cc(C4CCNCC4)cn3)n2)cc1 ?
(A) 10 to 100 nM

(Q) Again, but for O=S(=O)(NCCO)c1ccc(Nc2ncc(Cl)c(-n3cccn3)n2)cc1
(A) ≥ 100 nM

(Q) Item: CNS(=O)(=O)c1ccc(Nc2ncc(C(F)(F)F)c(-n3cc(C4CCN(C)CC4)cn3)n2)cc1
(A) 10 to 100 nM

(Q) Would you mind doing CNS(=O)(=O)c1ccc(Nc2ncc(C(F)(F)F)c(-n3cc(C)cn3)n2)cc1 as well?
(A) ≥ 100 nM
